# Tested on: biotinyl-Leu-oxazolone
# Assay notes: self-aminoacylation, catalytic enhancement (BLO) (fold over background); higher = more active; k-Seq, kA / k0A0; sequences stand for … in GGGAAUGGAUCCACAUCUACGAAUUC…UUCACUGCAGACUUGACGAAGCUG
Fewer inactive variants are shown than the library holds.

Ordered residues | self-aminoacylation
AUUUACCUAGGCCAUCGGGUG [Fam2.2 aminoacylation ribozyme variant] | 3.95
CCACACUACAAGCAAUCGUUC [Fam1B.1 aminoacylation ribozyme variant] | 0.54
CUUCUUCAAACAAUCGGUCUC [Fam1A.1 aminoacylation ribozyme variant] | 1.08
AUACUUCAAACAAUCGAUCUG [Fam1A.1 aminoacylation ribozyme variant] | 0.485
AUUACCCUUGUCAUCGAGCGA [Fam2.1 aminoacylation ribozyme variant] | 1.67

---

# Tested on: biotinyl-Trp-oxazolone
# Assay notes: self-aminoacylation, catalytic enhancement (BWO) (fold over background); higher = more active; k-Seq, kA / k0A0; sequences stand for … in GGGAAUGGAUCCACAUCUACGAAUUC…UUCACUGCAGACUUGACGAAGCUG
This sample holds only a part of the variants without activity.
Entry flag: Satisfied if self-aminoacylation reaches 2; Not satisfied if it does not.

Ordered residues | Target desc | Assigned class
CUACUUCAAACGAUCGGUCUA [Fam1A.1 aminoacylation ribozyme variant] | biotinyl-Trp-oxazolone | Not satisfied
CUACUACAAACAAACGGUCUG [Fam1A.1 aminoacylation ribozyme variant] | biotinyl-Trp-oxazolone | Not satisfied
CCACCCUUGAAGCAAUCGGUC [Fam1B.1 aminoacylation ribozyme variant] | biotinyl-Trp-oxazolone | Not satisfied
CCACACUACAAGCAAUCGUUC [Fam1B.1 aminoacylation ribozyme variant] | biotinyl-Trp-oxazolone | Not satisfied
AUUCACUUAGGUCAUCGGGCG [Fam2.2 aminoacylation ribozyme variant] | biotinyl-Trp-oxazolone | Satisfied
AUUACUCUGGUCAUCCAGUGA [Fam2.1 aminoacylation ribozyme variant] | biotinyl-Trp-oxazolone | Satisfied
AUUACCCGGGUCUUCGAGUGA [Fam2.1 aminoacylation ribozyme variant] | biotinyl-Trp-oxazolone | Satisfied
AUGACCCAGGUCAUCGAGUGA [Fam2.1 aminoacylation ribozyme variant] | biotinyl-Trp-oxazolone | Satisfied
AAGUUUGCUAAUAGUCCCCAG [Fam3.1 aminoacylation ribozyme variant] | biotinyl-Trp-oxazolone | Not satisfied

---

# System: biotinyl-Leu-oxazolone
# Assay notes: self-aminoacylation, catalytic enhancement (BLO) (fold over background); higher = more active; k-Seq, kA / k0A0; sequences stand for … in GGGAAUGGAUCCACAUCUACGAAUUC…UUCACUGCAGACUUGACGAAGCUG
Variants at the floor of the assay were thinned out.
self-aminoacylation by entry:

Ordered residues | self-aminoacylation
CCACACUUAAAGCAACCGGUC [Fam1B.1 aminoacylation ribozyme variant] | 0.876
AUUACCAUGGUCAUCGGGUGA [Fam2.1 aminoacylation ribozyme variant] | 13.6
AUUCACCUAGGUCAUCGGCUC [Fam2.2 aminoacylation ribozyme variant] | 2.45
ACUACCCUGGUCAUCUAGUGA [Fam2.1 aminoacylation ribozyme variant] | 7.72
CCAUUUCAAACAAUCGGUCUG [Fam1A.1 aminoacylation ribozyme variant] | 1.19
AUAACCCUGGACAUCGAGUGA [Fam2.1 aminoacylation ribozyme variant] | 6.63
CUACUUCAAACAAUCGGUGUC [Fam1A.1 aminoacylation ribozyme variant] | 0.635
UCACACUUCCAGCAAUCGGUC [Fam1B.1 aminoacylation ribozyme variant] | 1.02
AUGCCCCUAGGUCAUCGGGUG [Fam2.2 aminoacylation ribozyme variant] | 11.1
AUUUCCCAGGUCAUCGAGUGA [Fam2.1 aminoacylation ribozyme variant] | 5.63
AUUCGCCCAGGUCAUCGGGUG [Fam2.2 aminoacylation ribozyme variant] | 6.46
CUACUUCAAACCAGCGGUCUG [Fam1A.1 aminoacylation ribozyme variant] | 1.09
AUUACCCUAGUCAUUGAGUGA [Fam2.1 aminoacylation ribozyme variant] | 6.93
AUUACCCGGGUCAUCGAGAGA [Fam2.1 aminoacylation ribozyme variant] | 1.01
CUUCACGUAGGUCAUCGGGUG [Fam2.2 aminoacylation ribozyme variant] | 4.22
CCACACUUCAAGCACUCGGUG [Fam1B.1 aminoacylation ribozyme variant] | 4.22
CUACUUUAAACAAUCGGUCGG [Fam1A.1 aminoacylation ribozyme variant] | 0.963
AUUCACCUGGGUCAUGGGGUG [Fam2.2 aminoacylation ribozyme variant] | 9.15
CGACACCUCAAGCAAUCGGUC [Fam1B.1 aminoacylation ribozyme variant] | 0.749
ACUUCCCUGGUCAUCGAGUGA [Fam2.1 aminoacylation ribozyme variant] | 9.49
AAGUCUGCUAAUAGUCGCCAG [Fam3.1 aminoacylation ribozyme variant] | 1.04
CCACUCUUCAAGCACUCGGUC [Fam1B.1 aminoacylation ribozyme variant] | 1.04
AAGUUUGGUAUUAGUCGCAAG [Fam3.1 aminoacylation ribozyme variant] | 1.5
AAGUUUGCUAAUAGUGGCAAC [Fam3.1 aminoacylation ribozyme variant] | 0.783
CCACACUUCAAGCAAACGGUC [Fam1B.1 aminoacylation ribozyme variant] | 0.535
CCACAUUUCAAGCAAUCGGCC [Fam1B.1 aminoacylation ribozyme variant] | 3.19
AUUACCCGGGUAAUCGAGUGA [Fam2.1 aminoacylation ribozyme variant] | 13.9
AAGUUUGCUACUAGUCUCAAG [Fam3.1 aminoacylation ribozyme variant] | 0.77
CCAGACUUCAAGCAAUCGGUU [Fam1B.1 aminoacylation ribozyme variant] | 2.69
AAGUUUGCUGAUAGUCGCGAG [Fam3.1 aminoacylation ribozyme variant] | 2.43
CUUACACUGGUCAUCGAGUGA [Fam2.1 aminoacylation ribozyme variant] | 4.41
CUACUUCAACCAAUCGGUCUU [Fam1A.1 aminoacylation ribozyme variant] | 1.32
AUUCCCCUGGUCAUUGAGUGA [Fam2.1 aminoacylation ribozyme variant] | 8.32
UUACUUCAAGCAAUCGGUCUG [Fam1A.1 aminoacylation ribozyme variant] | 1.26
AUUAACCUAAGUCAUCGGGUG [Fam2.2 aminoacylation ribozyme variant] | 12.1

---

# System: biotinyl-Ile-oxazolone
# Assay notes: self-aminoacylation, catalytic enhancement (BIO) (fold over background); higher = more active; k-Seq, kA / k0A0; sequences stand for … in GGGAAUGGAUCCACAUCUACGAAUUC…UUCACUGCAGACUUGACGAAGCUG
Fewer inactive variants are shown than the library holds.

Ordered residues | self-aminoacylation
AUUCACCUAGGACAUCUGGUG [Fam2.2 aminoacylation ribozyme variant] | 2.02
CUACUUCACAGAAUCGGUCUG [Fam1A.1 aminoacylation ribozyme variant] | 1.03
CUACUUCAAACGAUCGGGCUG [Fam1A.1 aminoacylation ribozyme variant] | 1.49
CUACUUCAAAGAAUCCGUCUG [Fam1A.1 aminoacylation ribozyme variant] | 1.06
AUUCAUAUAGGUCAUCGGGUG [Fam2.2 aminoacylation ribozyme variant] | 3.42
AUCCCCCUGGUCAUCGAGUGA [Fam2.1 aminoacylation ribozyme variant] | 3.85
CCAUUCUUCAAGCAAUCGGUC [Fam1B.1 aminoacylation ribozyme variant] | 1.04
AUUACCCUGGUUAUCGCGUGA [Fam2.1 aminoacylation ribozyme variant] | 4.99
UUUGCCCUGGUCAUCGAGUGA [Fam2.1 aminoacylation ribozyme variant] | 16.5
GUUACCCUGGUCAUCGAGUGC [Fam2.1 aminoacylation ribozyme variant] | 4.28
AAGUUUGCUGAGAGUCGCAAG [Fam3.1 aminoacylation ribozyme variant] | 0.969
AUUCACCUAGGGCGUCGGGUG [Fam2.2 aminoacylation ribozyme variant] | 1.73
AUUACUCUGGUCAUCCAGUGA [Fam2.1 aminoacylation ribozyme variant] | 3.2
GUUACCCUGCUCAUCGAGUGA [Fam2.1 aminoacylation ribozyme variant] | 1.66
AUUUACCAAGGUCAUCGGGUG [Fam2.2 aminoacylation ribozyme variant] | 4.61
UCACAAUUCAAGCAAUCGGUC [Fam1B.1 aminoacylation ribozyme variant] | 1.04
CUUCACUUCAAGCAAUCGGUC [Fam1B.1 aminoacylation ribozyme variant] | 1.05
CUACCUCAAACAAUCGGUCUA [Fam1A.1 aminoacylation ribozyme variant] | 1.01

---

# Tested on: biotinyl-Trp-oxazolone
# Assay notes: self-aminoacylation, catalytic enhancement (BWO) (fold over background); higher = more active; k-Seq, kA / k0A0; sequences stand for … in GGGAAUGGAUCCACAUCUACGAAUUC…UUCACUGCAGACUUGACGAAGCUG
This sample holds only a part of the variants without activity.
Classify as follows. Reported self-aminoacylation greater than or equal to 3: t. Reported self-aminoacylation below: f.

Ordered residues | Target desc | Assigned class
UUUCACCUAGGUGAUCGGGUG [Fam2.2 aminoacylation ribozyme variant] | biotinyl-Trp-oxazolone | t
CUUCACCUAGGUCAUUGGGUG [Fam2.2 aminoacylation ribozyme variant] | biotinyl-Trp-oxazolone | f
AUUCACCUAGUUCAUCCGGUG [Fam2.2 aminoacylation ribozyme variant] | biotinyl-Trp-oxazolone | t
CUACUUGAAAGAAUCGGUCUG [Fam1A.1 aminoacylation ribozyme variant] | biotinyl-Trp-oxazolone | f
